Values were extracted from patent US20240309103A1.

# 100 nM Ag Bound (RU) per entry
- target_of_assay: mNPR1-mFc:hANP complex (mouse; human) (UniProt P01160)
- method_summary: SPR Biacore, mAb captured by anti-human Fc, 25C
metric: 100 nM Ag Bound (RU)

INSERT INTO assay_data (binder, reading) VALUES
  ('mAb22809 (antibody, human IgG4, V domains shown) VH: QLQLRESGPGLVKPSETLSLTCTVSGGSINDNSFFWDWIRQTPGRGLEWIGNIFFDGNTYYTPSLKSRVIISVDMSQNQFSLRLTSVTAADTALYYCARHKRSMTAWGFFDYWGQGTLVTVSS VL: DIQMTQSPSSLSASVGDRVTITCRASKRINTYLNWYQQKPGKAPKVLIYSASNLQSGVPSRFSGSGSGTDFTLTINSLQPEDFATYFCQQSFSAPPITFGQGTRLEIK', '0 RU'),
  ('mAb25508 (antibody, human IgG4, V domains shown) VH: EVQLVESGGGVVRPGGSLRLSCAASGFNVDDYGMSWVRQIPGKGLEWISGINWNGGRIYYADSMKGRITISRDNAKNSLYLQMNSLRAEDTALYHCVRDQWLVRGLDYWGQGTLVTVSS VL: DIQMTQSPSSLSASVGDRVTITCRASQGIYNYLAWFQQKPGKAPKSLIYAASSLQSGVPSKFSGSGSGTDFTLTISSLQPEDFATYYCQQYNTYPYTFGQGTKLEIK', '0 RU'),
  ('mAb22033 (antibody, human IgG4, V domains shown) VH: QVQLVQSGAEVKKPGASVTVSCKASGYTFTDYYMHWVRQAPGQGLEWMGWIKPNSGGTNSAQRFQGRITMTWDTSISTAYMELSRLRSDDTAVYYCSRGGPVMNYYYYYGMDVWGQGTTVTVSS VL: NIQMTQSPSSLSASVGDRVTITCRASQSIDSYLNWYQQKPGKAPKLLIYVASSLQSGVPSRFSGSGSGKDFTLTISSLQPEDFATYYCQQSYSIPTFGQGTRLEIK', '1 RU');
